Answer each item with its documented GI50.
Test system: OVCAR-8
Assay: NCI tumour cell line growth inhibition, 48 h
Active and inactive are the calls of the source. Cut-off read from the data, not from the text of the source: active = GI50 up to about 1.1 µM and inactive = higher.

Record excerpt, results attached:
>  <compound>
CCOS(=O)(=O)c1ccc(-c2c3nc(c(-c4ccc(S(=O)(=O)OCC)cc4)c4ccc([nH]4)c(-c4ccc(S(=O)(=O)OCC)cc4)c4nc(c(-c5ccc(S(=O)(=O)OCC)cc5)c5ccc2[nH]5)C=C4)C=C3)cc1

>  <testedTarget>
OVCAR-8

>  <GI50>
> 31.6 µM (inactive)

$$$$
>  <compound>
CC(=O)OCC1OC(OC2CC3C(C)(C)C(OC(C)=O)CC[C@]3(C)C3CCC45CC4(CC[C@H]5C(C)CC(O)C4OC4(C)C)[C@]23C)C(O)C(O)C1O (stereo partly drawn)

>  <testedTarget>
OVCAR-8

>  <GI50>
2.2 µM (inactive)

$$$$

Q) Item: Cc1noc(NS(=O)(=O)c2ccc(NC(=O)c3ccc4[nH]c5ccccc5c(=O)c4c3)cc2)c1C Test system: OVCAR-8 Read-out: GI50 Value: ?
A) 32.2 µM (inactive)

---

What follows is a record of GI50 for HCT-15.
Numbers only, in µM.

Below are worked cases with known answers.
>  <querySmiles>
O=C(/C=C/c1cccc(Br)c1)c1ccc(Cl)cc1

>  <endpointResult>
14.8

$$$$
>  <querySmiles>
O=C(CSc1nnc(Cc2ccccc2)o1)Nc1ccc(Cl)cc1[N+](=O)[O-]

>  <endpointResult>
16.5

$$$$
>  <querySmiles>
CCCCCCCCCCCCCCCCP(=O)(OC)OC

>  <endpointResult>
16.6

$$$$

Now turn to the next compound.
Q) // lookup GI50 for C=CCNC(=O)/C(Cc1cc(Br)c(OC)c(Br)c1O)=N\O
A) 2.57

---

Test system: SF-295
Assay: NCI tumour cell line growth inhibition, 48 h
Activity calls are given as the source filed them. No stated cut-off is given here; in the data, active = GI50 up to about 1.1 µM and inactive = higher.
Reply using exactly one outcome from active, inactive

Some entries whose results are on file:
>  <compound>
CN1C/C(=C\c2cccs2)C2=NN(C)C(c3cccs3)C2C1 (stereo unspecified)

>  <cat>
inactive

$$$$
>  <compound>
O=C(/C=C/c1cccc(Br)c1)c1cccs1

>  <cat>
inactive

$$$$
>  <compound>
CCC1(O)C(=O)OCc2c1cc1n(c2=O)Cc2cc3c(N)cccc3nc2-1 (stereo unspecified)

>  <cat>
active

$$$$
>  <compound>
O=C(NNC(=O)c1ccc(Cl)cc1NC(=O)C12CC3CC(CC(C3)C1)C2)c1ccc(Cl)cc1

>  <cat>
inactive

$$$$
>  <compound>
C=C1C(=O)O[C@H]2[C@@H](O)[C@H](C)CCC[C@]3(C)O[C@H]3CC[C@@]3(C)O[C@@H]3C[C@@H]12

>  <cat>
inactive

$$$$

Q) How was COc1cc2c(cc1OC)C(=O)N(c1ccc(O)cc1)C2 classified in this test?
A) inactive

Q) What outcome does the record of this test show for COc1ccc(C(=O)NC2=C(Cl)C(=O)c3ccccc3C2=O)cc1 ?
A) inactive

Q) What outcome does the record of this test show for C1=NN(Cc2ccccc2)C(N(Cc2ccccc2)Cc2ccccc2)N1 (stereo unspecified) ?
A) inactive

Q) Query: recorded result category for C[C@H](c1ccccc1)n1c(N)c(-c2nc3ccccc3s2)c2ccc([N+](=O)[O-])cc2c1=O in this test
A) inactive

Q) Tell me the assay call for CCCCCC/C=C\CCCCCCCCCc1cccc(OC)c1O please.
A) inactive

Q) Called result for Cc1cc(Cc2c(F)c(F)c(Cc3cc(C)no3)c(F)c2F)on1
A) inactive

Q) Outcome? COc1ccc2c(c1)c1ccc3c(c1n2C)C(=O)C=CC3=O
A) inactive

Q) Field: outcome | Entry: CC(C)(C)COC(=O)C(C)(C)NC(=O)C(CC(=O)OCc1ccccc1)NC(=O)OCc1ccccc1 (stereo unspecified)
A) inactive

Q) Record request — test call for COc1ccccc1/C=C/C1=NN(c2cccc(S(=O)(=O)O)c2)C2(C1)C(Cl)C(=O)N2c1nc2ccccc2s1 (stereo unspecified)
A) inactive

The reported numbers originate from ChEMBL document CHEMBL1201862.
